property: logP

>  <compound>
CC[C@H]1OC(=O)C[C@@H](O)[C@H](C)[C@@H](O[C@@H]2O[C@H](C)[C@@H](O[C@H]3C[C@@](C)(O)[C@@H](O)[C@H](C)O3)[C@H](N(C)C)[C@H]2O)[C@@H](CC=O)C[C@@H](C)C(=O)C=CC(C)=CC1CO[C@@H]1O[C@H](C)[C@@H](O)[C@@H](OC)[C@H]1OC (some centres undefined)

>  <value>
1.63

$$$$
>  <compound>
CC[C@H]1OC(=O)[C@H](C)[C@@H](O[C@H]2C[C@@](C)(OC)[C@@H](O)[C@H](C)O2)[C@H](C)[C@@H](O[C@@H]2O[C@H](C)C[C@H](N(C)C)[C@H]2O)[C@](C)(O)C[C@@H](C)CN(C)[C@H](C)[C@@H](O)[C@]1(C)O

>  <value>
4.02

$$$$
>  <compound>
CO[C@H]1C[C@H](O[C@H]2[C@H](C)[C@@H](O[C@@H]3O[C@H](C)C[C@H](N(C)C)[C@H]3O)[C@@H](C)C[C@]3(CO3)C(=O)[C@H](C)[C@@H](O)[C@@H](C)[C@@H](C)OC(=O)[C@@H]2C)O[C@@H](C)[C@@H]1O

>  <value>
1.69

$$$$
>  <compound>
CCC1OC(=O)CC(O)C(C)C(OC2OC(C)C(O)C(N(C)C)C2O)C(CC=O)CC(C)C(=O)C=CC(C)=CC1CO (centres undefined)

>  <value>
0.99

$$$$

---

Here, each record is paired with measured logP data.

>  <molecule>
CC[C@H]1OC(=O)[C@H](C)[C@@H](O[C@H]2C[C@@](C)(OC)[C@@H](O)[C@H](C)O2)[C@H](C)[C@@H](O[C@@H]2O[C@H](C)C[C@H](N(C)C)[C@H]2O)[C@](C)(O)C[C@@H](C)C(=O)[C@H](C)[C@@H](O)[C@]1(C)O

>  <logP>
3.06

$$$$
>  <molecule>
CCC1OC(=O)C(C)C(OC2CC(C)(OC)C(O)C(C)O2)C(C)C(OC2OC(C)CC(N(C)C)C2O)C(C)(O)CC(C)C(N)C(C)C2OC(=O)OC12C (stereo unspecified)

>  <logP>
2.92

$$$$
>  <molecule>
COC1C(OC(C)=O)CC(=O)OC(C)CC2OC2C=CC(=O)C(C)CC(CC=O)C1OC1OC(C)C(O)C(N(C)C)C1O (stereo unspecified)

>  <logP>
0.3

$$$$
>  <molecule>
CC[C@H]1OC(=O)C[C@@H](O)[C@H](C)[C@@H](O[C@@H]2O[C@H](C)[C@@H](O)[C@H](N(C)C)[C@H]2O)[C@@H](CCN2C[C@H](C)C[C@H](C)C2)C[C@@H](C)C(=O)C=CC(C)=C[C@@H]1CO[C@@H]1O[C@H](C)[C@@H](O)[C@@H](OC)[C@H]1OC

>  <logP>
3.8

$$$$
>  <molecule>
CCC1OC(=O)C[C@@H](O)[C@H](C)[C@@H](O[C@@H]2O[C@H](C)C[C@H](N(C)C)[C@H]2O)[C@@H](CC=O)C[C@@H](C)C(=O)C=C[C@]2(C)OC2C1C (stereo partly specified)

>  <logP>
2.19

$$$$
>  <molecule>
CO[C@@H]1[C@@H](O[C@@H]2O[C@H](C)[C@@H](O[C@H]3C[C@@](C)(O)[C@@H](OC(=O)CC(C)C)[C@H](C)O3)[C@H](N(C)C)[C@H]2O)[C@@H](CC=O)C[C@@H](C)C(=O)C=CC2OC2C[C@@H](C)OC(=O)C[C@H]1OC(C)=O (stereo partly specified)

>  <logP>
3.04

$$$$
